We use 2 as the dividing line for logP: on or above the line is criterion met, below is criterion not met.

Ask: Form field: logP at least 2? Entry: COc1ccccc1N1CCN(CCNC(=O)c2ccc(F)cc2)CC1
Result: criterion met

Ask: Determine whether this molecule has logP no lower than 2: COc1ccccc1N1CCN(CCNC(=O)c2cccnc2)CC1
Result: criterion not met

Ask: Does the reported logP for COc1ccccc1N1CCN(CCNC(=O)c2ccc[nH]2)CC1 fall at or above the 2 mark?
Result: criterion not met

Ask: Does logP meet or surpass 2 for COc1ccccc1N1CCN(CCNC(=O)c2ccccc2)CC1 ?
Result: criterion met

Ask: Tell me whether logP is at least 2 here: COc1ccccc1N1CCN(CCCOc2ccc(F)cc2)CC1
Result: criterion met

Ask: Can COc1ccccc1N1CCN(CCCC(O)c2ccc(F)cc2)CC1 (configuration not stated) be said to have logP at or above 2?
Result: criterion met

Ask: In plain terms: is recorded logP at least 2 for COc1ccccc1N1CCN(CCNC(=S)C2CCCCC2)CC1 ?
Result: criterion met

Ask: Test whether the molecule COc1ccccc1N1CCN(CCNC(=O)c2ccco2)CC1 records logP of 2 or higher.
Result: criterion not met

Ask: Test whether the molecule COc1ccccc1N1CCN(CCC=Cc2ccc(F)cc2)CC1 records logP of 2 or higher.
Result: criterion met

Ask: Hi, just wondering whether COc1ccccc1N1CCN(CCCCc2ccc(F)cc2)CC1 shows logP of 2 or higher.
Result: criterion met

Ask: Reported logP reaches at least 2 for COc1ccccc1N1CCN(CCNC(=N)C2CCCCC2)CC1 ?
Result: criterion met

Ask: Does the molecule COc1ccccc1N1CCN(CCNC(=O)c2ccncn2)CC1 have recorded logP that is 2 or more?
Result: criterion not met

Ask: Given the entry COc1ccccc1N1CCN(CCNC(=O)C2CCCCC2)CC1 , answer whether its logP meets or surpasses 2.
Result: criterion met

Ask: Given COc1ccccc1N1CCN(CCCC(=O)c2ccc(F)cc2)CC1 , state whether its logP is at least 2.
Result: criterion met

Ask: Could you tell me if the measured logP of COc1ccccc1N1CCN(CCNC(C)=O)CC1 reaches 2 or more?
Result: criterion not met

Ask: Identify whether the reported logP of the following molecule is 2 or greater: COc1ccccc1N1CCN(CCOCc2ccc(F)cc2)CC1
Result: criterion met
